Tested on: LTB4 production in murine blood (LTA4H)
Test: LTB4 production by calcium ionophore-stimulated murine blood for LTA4H inhibitor activity
Assay type: cell-based, CD-1 mice
Settings: Mus musculus
Counter-ions that a name gives are not always drawn.
experimentalReadout: IC50
Please report the result as a number followed by the unit.

Exercise: Give the measured IC50 of c1cnc2nc(Oc3ccc4cc(CN5CCCCC5)oc4c3)sc2c1 [Example 192, formate] .
Key: 120 nM

Let us move to another entry and its IC50.
Exercise: Give the measured IC50 of O=C(O)C1CCN(Cc2coc3cc(Oc4nc5ccccc5s4)ccc23)CC1 [Example 248, formate] .
Key: 20 nM

---

Tested on: LTB4 production in murine blood (LTA4H)
Test: LTB4 production by calcium ionophore-stimulated murine blood for LTA4H inhibitor activity
Type: cell-based, CD-1 mice
Details: Mus musculus; murine blood diluted 1 in 15, A23187 stimulated; single determination or average; mark after value = form tested: ′ free base, ″ hydrochloride, ^ formate; read-out: IC50
Where a name gives a salt, the structure may show the parent alone.
// classify(record): look up IC50 in ranges low range (below 80 nM), mid range (80 nM to below 200 nM), high range (200 nM or more)

Here are 3 compounds together with their reported answers.
Exercise: Lab note: sort CC1CN(Cc2coc3cc(Oc4nc5ncccc5s4)ccc23)CC(C)O1 (centres unmarked) into the matching IC50 band.
Key: high range

Exercise: Lab note: sort `O=C1CCCN1C1CCN(Cc2coc3cc(Oc4nc5ccccc5s4)ccc23)CC1` into the matching IC50 band.
Key: low range

Exercise: Lab note: sort `CC(=O)NC1CCN(C(=O)c2coc3cc(Oc4nc5ncccc5s4)ccc23)CC1` into the matching IC50 band.
Key: mid range

New cases:
Exercise: Lab note: sort `CN(C)Cc1cc2cc(Oc3nc4ncccc4s3)ccc2o1` into the matching IC50 band.
Key: low range

Exercise: Lab note: sort CCCNCc1coc2cc(Oc3nc4ncccc4s3)ccc12 [Example 303, formate] into the matching IC50 band.
Key: low range

Exercise: Lab note: sort `O=C(c1coc2cc(Oc3nc4ncccc4s3)ccc12)N1CCC(C(=O)N2CCCCC2)CC1` into the matching IC50 band.
Key: mid range

Exercise: Lab note: sort FC(F)(F)C1CCN(Cc2cc3ccc(Oc4nc5ncccc5s4)cc3o2)CC1 [Example 191, formate] into the matching IC50 band.
Key: high range

Exercise: Lab note: sort `NC(=O)C1CCN(Cc2cc3cc(Oc4nc5ccccc5s4)ccc3o2)CC1` into the matching IC50 band.
Key: high range

Exercise: Lab note: sort `O=C(C1CCN(Cc2c[nH]c3cc(Oc4nc5ccccc5s4)ccc23)CC1)N1CCOCC1` into the matching IC50 band.
Key: mid range

---

Tested on: arachidonic acid-induced neutrophil influx in murine ear tissue
Experiment: Murine arachidonic acid-induced inflammation model: neutrophil influx (myeloperoxidase) in ear
Format: in vivo, Balb/c mice
Settings: Mus musculus, Neutrophil, read-out: % Inh. MPO
Counter-ions that a name gives are not always drawn.
Measured inhibition at 30 mg/kg accompanies every entry in the list below.
// units = %; emit number, no label

Exercise: Give the measured inhibition at 30 mg/kg of CC(=O)N1CCN(Cc2coc3cc(Oc4nc5ncccc5s4)ccc23)CC1 [Example 196, formate] .
Key: 93

New cases:
Exercise: Give the measured inhibition at 30 mg/kg of CCN(CC)Cc1cc2ccc(Oc3nc4ncccc4s3)cc2o1 [Example 198, formate] .
Key: 74

Exercise: Give the measured inhibition at 30 mg/kg of CC(=O)NC1CCN(Cc2coc3cc(Oc4nc5ncccc5s4)ccc23)C1 (stereo not drawn) [Example 307, formate] .
Key: 78

Exercise: Give the measured inhibition at 30 mg/kg of CC(=O)NC1CCN(Cc2coc3cc(Oc4nc5ncccc5s4)ccc23)CC1 [Example 197, formate] .
Key: 92

Exercise: Give the measured inhibition at 30 mg/kg of CC(C)(C)C(=O)NC1CCN(Cc2cc3ccc(Oc4nc5ncccc5s4)cc3o2)C1 (stereo not drawn) [Example 236, formate] .
Key: 34

Exercise: Give the measured inhibition at 30 mg/kg of NC(=O)N1C[C@@H]2C[C@H]1CN2Cc1coc2cc(Oc3nc4ncccc4s3)ccc12 [Example 209, formate] .
Key: 82

---

Measured pIC50 accompanies every entry in the list below.
Biological target: recombinant human LTA4 hydrolase (rhLTA4H) (Homo sapiens, UniProt P09960)
Construct: made in house; host or cells: Spodoptera frugiperda (Sf-9) cells, baculovirus (pFastBac1)
Assay: Recombinant human LTA4 hydrolase assay for LTA4 hydrolase inhibitor activity
Format: biochemical
Settings: rhLTA4H, LTB4 by immunoassay; single determination or average of two or more; mark after value = form tested: ′ free base, ″ hydrochloride, ^ formate; read-out: IC50
Structures can show the parent of a compound that is named as a salt.
Value format note: pIC50 is -log10 of concentration (mol/L); just state the number.

Exercise: Give the measured pIC50 of `CN(Cc1ccccc1)Cc1c[nH]c2cc(Oc3nc4ccccc4s3)ccc12` .
Key: 7.27

Exercise: Give the measured pIC50 of `NC(=O)C1CCN(Cc2cc3ccc(Oc4nc5ccccc5s4)cc3[nH]2)CC1` .
Key: 7.33

Exercise: Give the measured pIC50 of `O=C(C1CCN(Cc2c[nH]c3cc(Oc4nc5ccccc5s4)ccc23)CC1)N1CCCCC1` .
Key: 8.70

Exercise: Give the measured pIC50 of CC(=O)NC1CCN(Cc2coc3cc(Oc4nc5nc(C)ccc5s4)ccc23)CC1 [Example 250, formate] .
Key: 6.33

---

Measured pIC50 accompanies every entry in the list below.
Biological target: recombinant human LTA4 hydrolase (rhLTA4H) (Homo sapiens)
Construct: made in house; host or cells: Spodoptera frugiperda (Sf-9) cells, baculovirus (pFastBac1)
Experiment: Recombinant human LTA4 hydrolase assay for LTA4 hydrolase inhibitor activity
Format: biochemical
Settings: rhLTA4H, LTB4 by immunoassay; single determination or average of two or more; mark after value = form tested: ′ free base, ″ hydrochloride, ^ formate; read-out: IC50
Where a name gives a salt, the structure may show the parent alone.
Value format note: pIC50 is -log10 of concentration (mol/L); just state the number.

Exercise: Give the measured pIC50 of `CC(=O)N1C[C@H]2CC[C@@H](C1)N2Cc1cc2ccc(Oc3nc4cnccc4s3)cc2o1` .
Key: 5.82

New cases:
Exercise: Give the measured pIC50 of `c1cnc2nc(Oc3ccc4c(CNCCN5CCCCC5)coc4c3)sc2c1` .
Key: 7.51

Exercise: Give the measured pIC50 of `O=C1CCCN1C1CCN(Cc2coc3cc(Oc4nc5ccccc5s4)ccc23)CC1` .
Key: 7.96

Exercise: Give the measured pIC50 of O=C(O)CN1CCN(Cc2cc3ccc(Oc4nc5ccccc5s4)cc3o2)CC1 [Example 79, formate] .
Key: 6.34

Exercise: Give the measured pIC50 of `c1ccc2sc(Oc3ccc4c(CN5CCOCC5)coc4c3)nc2c1` .
Key: 7.02

Exercise: Give the measured pIC50 of `CCN(CC)CCNCc1coc2cc(Oc3nc4ncccc4s3)ccc12` .
Key: 7.46

Exercise: Give the measured pIC50 of c1cnc2nc(Oc3ccc4cc(CN5CC6COCC6C5)oc4c3)sc2c1 (stereo not drawn) [Example 110, formate] .
Key: 6.68

Exercise: Give the measured pIC50 of `NC(=O)C1CCN(Cc2coc3cc(Oc4nc5ncccc5s4)ccc23)CC1` .
Key: 8.30

Exercise: Give the measured pIC50 of `Fc1ccc2sc3c(c2c1)CN(Cc1c[nH]c2cc(Oc4nc5ncccc5s4)ccc12)CC3` .
Key: 7.54

---

Measured pIC50 accompanies every entry in the list below.
Molecular target: recombinant human LTA4 hydrolase (rhLTA4H) (Homo sapiens)
Construct: made in house; host or cells: Spodoptera frugiperda (Sf-9) cells, baculovirus (pFastBac1)
Sequence (P09960 1-611): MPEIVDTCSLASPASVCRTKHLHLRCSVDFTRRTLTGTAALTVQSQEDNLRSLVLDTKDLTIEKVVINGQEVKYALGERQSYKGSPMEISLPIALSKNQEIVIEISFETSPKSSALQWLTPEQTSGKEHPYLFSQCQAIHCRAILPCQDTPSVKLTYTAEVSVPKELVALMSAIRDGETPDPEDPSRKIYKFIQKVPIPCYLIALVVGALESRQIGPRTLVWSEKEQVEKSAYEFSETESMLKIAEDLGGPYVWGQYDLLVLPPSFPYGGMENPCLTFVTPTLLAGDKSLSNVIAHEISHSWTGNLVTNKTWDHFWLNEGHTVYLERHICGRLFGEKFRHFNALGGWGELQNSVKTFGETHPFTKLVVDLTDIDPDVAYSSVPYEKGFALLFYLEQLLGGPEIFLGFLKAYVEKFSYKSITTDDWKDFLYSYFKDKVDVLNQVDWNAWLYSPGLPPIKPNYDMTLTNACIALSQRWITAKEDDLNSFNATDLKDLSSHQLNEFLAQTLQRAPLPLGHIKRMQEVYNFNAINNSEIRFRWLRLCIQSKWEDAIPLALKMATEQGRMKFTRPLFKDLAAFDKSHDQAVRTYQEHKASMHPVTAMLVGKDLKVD
Assay: Recombinant human LTA4 hydrolase assay for LTA4 hydrolase inhibitor activity
Format: biochemical
Settings: rhLTA4H, LTB4 by immunoassay; single determination or average of two or more; mark after value = form tested: ′ free base, ″ hydrochloride, ^ formate; read-out: IC50
Structures can show the parent of a compound that is named as a salt.
Value format note: pIC50 is -log10 of concentration (mol/L); just state the number.

Exercise: Give the measured pIC50 of `c1cnc2nc(Oc3ccc4c(CN5CCOCC5)coc4c3)sc2c1` .
Key: 7.77

Exercise: Give the measured pIC50 of FC1CCCN(Cc2coc3cc(Oc4nc5ncccc5s4)ccc23)C1 (centres unmarked) .
Key: 7.59

Exercise: Give the measured pIC50 of CC1CCN(Cc2coc3cc(Oc4nc5ncccc5s4)ccc23)CC1 [Example 286, formate] .
Key: 9.00

Exercise: Give the measured pIC50 of NC(=O)N1C[C@@H]2CC[C@H]1CN2Cc1coc2cc(Oc3nc4ncccc4s3)ccc12 [Example 241, formate] .
Key: 8.40

Exercise: Give the measured pIC50 of `CS(=O)(=O)N1CCC(N(Cc2coc3cc(Oc4nc5ncccc5s4)ccc23)C2CC2)CC1` .
Key: 7.85

Exercise: Give the measured pIC50 of `FC1(F)CN(Cc2coc3cc(Oc4nc5ncccc5s4)ccc23)C1` .
Key: 7.54

Exercise: Give the measured pIC50 of `CC(=O)N[C@H]1C[C@H]2CC[C@@H](C1)N2Cc1coc2cc(Oc3nc4ccccc4s3)ccc12` .
Key: 8.52

Let us move to another entry and its pIC50.
Exercise: Give the measured pIC50 of CC(=O)NC1CCN(Cc2cc3ncc(Oc4nc5ncccc5s4)cc3o2)CC1 [Example 273, formate] .
Key: 6.80
